molecular target: A*0202 (Homo sapiens, UniProt P04439, D140Y/D185E/D98H/E176V/E277Q/G131W/G231S/I119L/I121R/I166T/I218V/L180W/L300P/L318F/N151K/N90K/P208A/P217A/Q67R/Q86G/Q94H/R138H/R169H/T345S); experiment: biochemical; assay type: binding
No end group written: not given here.
measurement.label: pIC50
In simple prose, pIC50 is minus the logarithm base ten of a concentration in moles per litre.

Which pIC50 value belongs to PLYSWRINGI [Peptide 9013.0236] ?
6.46

Okay, and LLIESTPFNVA [Peptide 9013.0268] ?
8.48

Okay, and GVNLSLSCHAV [Peptide 9013.0311] ?
7.20

====

target: DRB1*0802 (Homo sapiens, UniProt P01903+P01911, A100R/A103L/A169T/F76Y/H45Y/I96F/K41T/L162R/M171V/P40S/Q125H/Q178H/Q39Y/Q99D/R218S/R42G/S66Y/V115G/W38E); test: biochemical; type: binding
No end group written: not given here.
measurement.label: IC50

Which IC50 value belongs to AKLMSNLLSIPETCM [Peptide 89.0066] ?
> 20 µM

Okay, and YFKLFLQGTPKHNCL [Peptide 89.0133] ?
> 20 µM

Okay, and LKTIIKPHCMYYHMQ [Peptide 89.0119] ?
> 20 µM

Okay, and LETIYNSQYSNEKWT [Peptide 1601.03] ?
> 20 µM

Okay, and GVNHQHLPARRAEPQ [Peptide 1543.05] ?
> 20 µM

Okay, and GLYYWCDGEKIYFVK [Peptide 90.0226] ?
> 20 µM

====

Provide the recorded pIC50 for the entries that follow.
biological target: DRB1*1302 (Homo sapiens, UniProt P01903+P01911, A100E/A169T/K41T/L162R/M171V/P40S/Q125H/Q178H/Q39Y/Q99D/R42S/S66N/T262R/V115G/W38E/Y61H); assay: biochemical; assay type: binding
Sequence (P01903 26-254 limits assumed, other chains not shown): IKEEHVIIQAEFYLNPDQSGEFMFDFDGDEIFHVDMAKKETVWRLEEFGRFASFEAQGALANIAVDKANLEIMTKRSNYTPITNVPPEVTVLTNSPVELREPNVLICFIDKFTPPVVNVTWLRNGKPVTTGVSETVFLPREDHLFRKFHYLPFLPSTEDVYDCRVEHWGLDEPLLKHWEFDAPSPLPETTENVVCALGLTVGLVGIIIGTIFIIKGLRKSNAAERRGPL
pIC50: −log10 of the molar value. No end group written: not given here.

Which pIC50 value belongs to DSDIAYYYAQLADSN [Peptide 89.0071] ?
< 4.70

Okay, and LSGLHGQDLFGIWSK [Peptide 68.0040] ?
< 4.70

Okay, and DSQIAFQYAQLADVD [Peptide 89.0130] ?
< 4.70

Okay, and NMSLLKHQSLRPDED [Peptide 68.0009] ?
< 4.70

Okay, and MVQVEEQQTTLSCNG [Peptide 89.0040] ?
< 4.70

Okay, and KVAMLDDATHTCWTY [Peptide 90.0105] ?
< 4.70

Okay, and LVQIKCPPLLITTNI [Peptide 89.0138] ?
< 4.70

Okay, and SEVYDFAFADLTVVY [Peptide 85.0024] ?
< 4.70

Okay, and DSEIAYKYAQLADSD [Peptide 89.0051] ?
< 4.70

====

Provide the recorded IC50 for the entries that follow.
molecular target: HLA-A3.2 (A*0301) (Homo sapiens); test: biochemical; format: binding
No end group written: not given here.
# number only, unit nM dropped from output

Which IC50 value belongs to GTRQARKNRR [Peptide 9017.0200] ?
1550

Okay, and NTKANILYK [Peptide 88.0358] ?
2120

Okay, and RLKAICIEK [Peptide 1587.01] ?
43

Okay, and KGLGISYGRKK [Peptide 1577.23] ?
23

Okay, and AILGHIVSPR [Peptide 9017.0225] ?
14

Okay, and AFDLSHFLK [Peptide 9017.0063] ?
777

Okay, and LLYGPANTGK [Peptide 1587.56] ?
14

Okay, and LNKMFCQLAR [Peptide 1556.49] ?
11100

Okay, and AILGHIVRPR [Peptide 9017.0226] ?
49

Okay, and WLIKRIRER [Peptide 9017.0122] ?
5160

Okay, and SLYGKTLEER [Peptide 78.0142] ?
56

Okay, and HLFGYSFYK [Peptide 76.0190] ?
5.4

Okay, and VTIKIGGQIR [Peptide 1516.05] ?
13000

Okay, and TVHVYFDGNK [Peptide 1589.24] ?
707

Okay, and SVYGTTLEK [Peptide 78.0282] ?
19

Okay, and VTVKVGGQLR [Peptide 1516.06] ?
8930

Okay, and RQMNMSQWIK [Peptide 1587.54] ?
18

Okay, and VVLLLVRYK [Peptide 1587.05] ?
13

Okay, and VTIYYGVPVWK [Peptide 1525.03] ?
42

Okay, and VTIYYGVPVWR [Peptide 1525.04] ?
920

Okay, and STCMGGMNR [Peptide 1556.61] ?
281

Okay, and LSALKLFLK [Peptide 1587.39] ?
957

Okay, and GLYYWCDGEK [Peptide 88.0229] ?
107

Okay, and LVKMFCQLAK [Peptide 1556.50] ?
1200

Okay, and QVVPAYNISK [Peptide 1589.06] ?
326

Okay, and STAAALYWYR [Peptide 1587.32] ?
89

Okay, and AAFDLSFFLK [Peptide 9017.0189] ?
9

Okay, and KTLLQPYCLY [Peptide 88.0153] ?
180

Okay, and SFFSRTWCR [Peptide 1587.42] ?
2380

Okay, and GTMCRHYKR [Peptide 1587.34] ?
611

Okay, and IVFIEYRKIR [Peptide 9017.0245] ?
4370

Okay, and VTVYYGIPVWR [Peptide 1525.05] ?
123

Okay, and AACWRSRRR [Peptide 78.0322] ?
5600

Okay, and SVAALYWYR [Peptide 88.0341] ?
32

Okay, and STAAALYWYK [Peptide 1587.06] ?
4.5

Okay, and GVLILALLR [Peptide 88.0338] ?
2880

Okay, and LQQTSLEMWR [Peptide 88.0228] ?
13100

Okay, and TVSATQIVR [Peptide 1589.26] ?
2540

Okay, and MLIQPPKLR [Peptide 88.0340] ?
16200

Okay, and SFFSRTWSR [Peptide 1587.16] ?
1140

Okay, and KTTVLFKFK [Peptide 88.0369] ?
31

Okay, and FTAFLGAFKK [Peptide 88.0168] ?
1900

Okay, and KISEYRHYCY [Peptide 78.0082] ?
152

Okay, and ATLESITKK [Peptide 78.0300] ?
56

Okay, and ILLLLIRFK [Peptide 88.0386] ?
120

Okay, and KTLEERVKK [Peptide 78.0294] ?
302

Okay, and QVVPALSVSK [Peptide 1589.13] ?
825

Okay, and TIAYIEYRK [Peptide 9017.0119] ?
911

Okay, and AVMCRHYKR [Peptide 1587.53] ?
213
